// reported pKi per item
# Measurement target: MCL-1 (Homo sapiens)
# Construct: His6-MBP (cleaved yes); made in house; host or cells: E. coli
# Sequence (Q07820 172-327): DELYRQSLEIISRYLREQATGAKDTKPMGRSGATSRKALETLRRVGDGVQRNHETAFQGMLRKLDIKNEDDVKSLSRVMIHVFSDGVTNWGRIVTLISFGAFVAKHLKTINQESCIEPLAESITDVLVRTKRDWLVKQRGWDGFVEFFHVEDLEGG
# Protocol details: Fluorescence polarization competition assay (FPCA) with FITC-Bak, MCL-1
# Format: binding
# Experimental context: Table 2; FPCA; read-out: K i (MCL-1)
pKi: −log10 of the molar value.
Attribute measured: pKi

| Compound | Observed |
| --- | --- |
| CS(=O)(=O)NC(=O)c1ccc(N(Cc2ccccc2)S(=O)(=O)c2ccc(Oc3ccccc3)cc2)cc1O [Compound 7a] | 5.53 |
| Cc1cc(Oc2ccc(S(=O)(=O)N(Cc3ccccc3)c3ccc(C(=O)NS(=O)(=O)c4ccc(NCC5CCOCC5)c([N+](=O)[O-])c4)c(O)c3)cc2)cc(C)c1Cl [Compound 7d] | 6.10 |
| O=C(NS(=O)(=O)c1ccc(NCC2CCOCC2)c([N+](=O)[O-])c1)c1ccc(N(Cc2ccccc2)S(=O)(=O)c2ccc(Oc3ccccc3)cc2)cc1O [Compound 7c] | 5.91 |
| Cc1cc(Oc2ccc(S(=O)(=O)N(Cc3ccccc3)c3ccc(O)c(C(=O)O)c3)cc2)cc(C)c1Cl [Compound 27] | 5.85 |
| Cc1cc(Oc2ccc(S(=O)(=O)N(Cc3ccccc3)c3ccc(O)c(C(=O)NS(=O)(=O)c4ccc(NCC5CCOCC5)c([N+](=O)[O-])c4)c3)cc2)cc(C)c1Cl [Compound 29] | 6.00 |
